- System: Kasumi-1 cells
- Experiment notes: Tumor cell proliferation IC50 (CCK-8), Kasumi-1
- Measurement context: Homo sapiens, Kasumi 1, 72 h, read-out: IC50 for inhibiting the proliferation of tumor cells, Kasumi-1
pIC50: −log10 of the molar value.
Catalogue of pIC50 values
Measurement label: pIC50

Molecule	Measurement label	Test result
CC1(C)CCC(CN2CCN(Cc3cc4c(cc3F)C(=O)N(C3CCC(=O)NC3=O)C4)CC2)=C(c2ccc(F)cc2)C1 (stereo not drawn)	pIC50	7.30 to 8.00
CC1(C)CCC(CN2CCN(Cc3ccc4c(c3)CN(C3CCC(=O)NC3=O)C4=O)CC2)=C(c2ccc(Cl)cc2)C1 (stereo not drawn)	pIC50	7.00 to 7.30
Nc1cccc2c1C(=O)N(C1CCC(=O)NC1=O)C2=O (stereo not drawn) [pomalidomide, reference compound]	pIC50	< 5.00
O=C1CCC(N2Cc3cc(C=C4CN(C(=O)c5ccccc5-c5ccc(Cl)cc5)C4)ccc3C2=O)C(=O)N1 (stereo not drawn)	pIC50	7.30 to 8.00
O=C1CCC(N2C(=O)c3ccc(CN4CCN(Cc5ccccc5-c5ccc(Cl)cc5)CC4)cc3C2=O)C(=O)N1 (stereo not drawn)	pIC50	6.30 to 7.00
CC1(C)CCC(CN2CCN(Cc3ccc4c(c3F)CN(C3CCC(=O)NC3=O)C4=O)CC2)=C(c2ccc(Cl)cc2)C1 (stereo not drawn)	pIC50	7.30 to 8.00
CC1(C)CCC(CN2CCN(Cc3cc4c(cc3F)C(=O)N(C3CCC(=O)NC3=O)C4)CC2)=C(c2ccc(Cl)cc2)C1 (stereo not drawn)	pIC50	> 8.30
O=C1CCC(N2Cc3cc(CN4CCN(Cc5ccccc5-c5ccc(Cl)cc5)CC4)ccc3C2=O)C(=O)N1 (stereo not drawn)	pIC50	> 8.30
O=C1CCC(N2Cc3cc(CC4CCN(C(=O)c5ccccc5-c5ccc(Cl)cc5)CC4)ccc3C2=O)C(=O)N1 (stereo not drawn)	pIC50	7.30 to 8.00

* * *

// each record: one item and its IC50 for UniProt Q96SW2
Sequence (Q96SW2 whole entry): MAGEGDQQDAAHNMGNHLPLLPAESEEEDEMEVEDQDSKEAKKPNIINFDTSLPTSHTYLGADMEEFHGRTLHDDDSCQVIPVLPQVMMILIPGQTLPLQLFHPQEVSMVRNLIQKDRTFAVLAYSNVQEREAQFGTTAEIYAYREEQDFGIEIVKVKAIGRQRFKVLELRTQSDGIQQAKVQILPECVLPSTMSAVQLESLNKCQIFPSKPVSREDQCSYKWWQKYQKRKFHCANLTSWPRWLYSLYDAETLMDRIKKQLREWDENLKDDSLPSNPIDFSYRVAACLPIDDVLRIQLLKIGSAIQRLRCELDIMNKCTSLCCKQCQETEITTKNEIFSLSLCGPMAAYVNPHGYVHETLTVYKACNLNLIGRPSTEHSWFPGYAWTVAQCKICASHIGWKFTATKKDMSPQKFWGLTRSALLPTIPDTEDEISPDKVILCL

Compound	Target entity	IC50 / nM
O=C1CCC(N2Cc3cc(CN4C5CCC4CN(C(=O)c4ccccc4-c4ccc(Cl)cc4)C5)ccc3C2=O)C(=O)N1 (stereo not drawn) [GT-05788]	UniProt Q96SW2	500
O=C1CCC(N2Cc3c(ccc(CN4C5CC4CN(C(=O)C4=C(c6ccc(F)cc6)CCCC4)C5)c3F)C2=O)C(=O)N1 (stereo not drawn) [GT-05475]	UniProt Q96SW2	910
CC1(C)CCC(CN2CCC3(CC2)CN(C(=O)c2ccc4c(c2)CN(C2CCC(=O)NC2=O)C4=O)C3)=C(c2ccc(F)cc2)C1 (stereo not drawn) [GT-05507]	UniProt Q96SW2	1240
O=C1CCC(N2Cc3cc(CN4CCN(Cc5ccccc5-c5ccc(Cl)cc5)CC4)c(F)cc3C2=O)C(=O)N1 (stereo not drawn) [GT-03695]	UniProt Q96SW2	1170
CC1(C)CCC(C(=O)N2CC(O)(C(O)c3ccc4c(c3)CN(C3CCC(=O)NC3=O)C4=O)C2)=C(c2ccc(F)cc2)C1 (stereo not drawn) [GT-05490]	UniProt Q96SW2	580
CC1(C)CCC(C(=O)N2CC(=Cc3ccc4c(c3)CN(C3CCC(=O)NC3=O)C4=O)C2)=C(c2ccc(F)cc2)C1 (stereo not drawn) [GT-05489]	UniProt Q96SW2	610
CC1(C)CCC(C(=O)N2CCC3(CC2)CN(Cc2ccc4c(c2)CN(C2CCC(=O)NC2=O)C4=O)C3)=C(c2ccc(Cl)cc2)C1 (stereo not drawn) [GT-05656]	UniProt Q96SW2	700
O=C1CCC(N2Cc3c(ccc(CN4CCN(Cc5ccccc5-c5ccc(Cl)cc5)CC4)c3F)C2=O)C(=O)N1 (stereo not drawn) [GT-03694]	UniProt Q96SW2	540
CC1(C)CCC(CN2C3CCC2CN(Cc2ccc4c(c2)CN(C2CCC(=O)NC2=O)C4=O)C3)=C(c2ccc(Cl)cc2)C1 (stereo not drawn) [GT-03996]	UniProt Q96SW2	1440
O=C1CCC(N2Cc3cc(CC4CN(C(=O)c5ccccc5-c5ccc(Cl)cc5)C4)ccc3C2=O)C(=O)N1 (stereo not drawn) [GT-03922]	UniProt Q96SW2	160
CC1(C)CCC(CN2C3CC2CN(C(=O)c2ccc4c(c2)CN(C2CCC(=O)NC2=O)C4=O)C3)=C(c2ccc(Cl)cc2)C1 (stereo not drawn) [GT-05457]	UniProt Q96SW2	1260
CC1(C)CCC(C(=O)N2CC3CCC(C2)N3Cc2ccc3c(c2)CN(C2CCC(=O)NC2=O)C3=O)=C(c2ccc(F)cc2)C1 (stereo not drawn) [GT-05516]	UniProt Q96SW2	600
O=C1CCC(N2Cc3cc(CN4CCN(C(=O)c5ccccc5-c5ccc(Cl)cc5)CC4)c(F)cc3C2=O)C(=O)N1 (stereo not drawn) [GT-05650]	UniProt Q96SW2	940
CC1(C)CCC(C(=O)N2CC3CCC(C2)N3Cc2ccc3c(c2)CN(C2CCC(=O)NC2=O)C3=O)=C(c2ccc(Cl)cc2)C1 (stereo not drawn) [GT-05522]	UniProt Q96SW2	480
O=C1CCC(N2Cc3ccc(CN4CCN(CC5=C(c6ccc(F)cc6)CCCC5)CC4)cc3C2=O)C(=O)N1 (stereo not drawn) [GT-05465]	UniProt Q96SW2	830
O=C1CCC(N2Cc3ccc(CN4CCN(Cc5ccccc5-c5ccc(F)cc5)CC4)cc3C2=O)C(=O)N1 (stereo not drawn) [GT-05606]	UniProt Q96SW2	1180
CC1(C)CCC(CN2C3CCC2CN(c2ccc4c(c2)CN(C2CCC(=O)NC2=O)C4=O)C3)=C(c2ccc(Cl)cc2)C1 (stereo not drawn) [GT-05429]	UniProt Q96SW2	1490
CC1(C)CCC(CN2CCN(Cc3cc4c(cc3F)C(=O)N(C3CCC(=O)NC3=O)C4)CC2)=C(c2ccc(Cl)cc2)C1 (stereo not drawn) [GT-03578]	UniProt Q96SW2	1830
CC1(C)CCC(C(=O)N2C3CC2CN(Cc2ccc4c(c2)CN(C2CCC(=O)NC2=O)C4=O)C3)=C(c2ccc(F)cc2)C1 (stereo not drawn) [GT-05515]	UniProt Q96SW2	1010
CC1(C)CCC(C(=O)N2C3CCC2CN(C(=O)c2ccc4c(c2)CN(C2CCC(=O)NC2=O)C4=O)C3)=C(c2ccc(Cl)cc2)C1 (stereo not drawn) [GT-05540]	UniProt Q96SW2	960
CC1(C)CCC(CN2C3CC2CN(c2ccc4c(c2)C(=O)N(C2CCC(=O)NC2=O)C4=O)C3)=C(c2ccc(F)cc2)C1 (stereo not drawn) [GT-05387]	UniProt Q96SW2	810
CC1(C)CC(c2ccc(Cl)cc2)=C(CN2CCN(C(=O)c3ccc4c(c3)CN(C3CCC(=O)NC3=O)C4=O)CC2)CO1 (stereo not drawn) [GT-05673]	UniProt Q96SW2	1140
O=C1CCC(N2Cc3cc(C(=O)N4CC5CC(C4)N5Cc4ccccc4-c4ccc(Cl)cc4)ccc3C2=O)C(=O)N1 (stereo not drawn) [GT-05705]	UniProt Q96SW2	880
O=C1CCC(N2Cc3cc(CN4CCN(C(=O)c5cnc(-c6ccccc6)cn5)CC4)ccc3C2=O)C(=O)N1 (stereo not drawn) [GT-05635]	UniProt Q96SW2	1000
CC1(C)CCC(CN2CC3CCC(C2)N3Cc2ccc3c(c2)C(=O)N(C2CCC(=O)NC2=O)C3)=C(c2ccc(Cl)cc2)C1 (stereo not drawn) [GT-05459]	UniProt Q96SW2	1120
CC1(C)CCC(CN2CC3CCC(C2)N3Cc2ccc3c(c2F)CN(C2CCC(=O)NC2=O)C3=O)=C(c2ccc(Cl)cc2)C1 (stereo not drawn) [GT-03890]	UniProt Q96SW2	510
CC1(C)CCC(C(=O)N2CCN(Cc3cc(F)c4c(c3)CN(C3CCC(=O)NC3=O)C4=O)CC2)=C(c2ccc(Cl)cc2)C1 (stereo not drawn) [GT-05527]	UniProt Q96SW2	990
